- System: E. faecalis (Ef)
- assay-remarks: Broth microdilution minimum inhibitory concentration (MIC)
- Type: cell-based
- study-conditions: Enterococcus faecalis, E. faecalis; growth medium supplemented with sodium bicarbonate; read-out: Ef + bicarb MIC
Measured MIC accompanies every entry in the list below.
property-measured: MIC

{"compound": "Cc1cc(-n2ccc(NC(=O)N3CCN(C(=O)[C@@](C)(N)CO)CC3)nc2=O)ccc1CCN1CCCC(N)CC1 (some centres unmarked)", "property-measured": "MIC", "val": "< 8 µg/mL"}
{"compound": "CCN(Cc1ccc(-n2ccc(NC(=O)N3CCN(C(=O)C(C)(C)N)CC3)nc2=O)cc1)CC1CC(N)C1 (centres unmarked)", "property-measured": "MIC", "val": "< 8 µg/mL"}
{"compound": "CC(C)(N)C(=O)N1CCN(C(=O)Nc2ccn(-c3ccc(CCN4CCC[C@@H](CN)C4)cc3)c(=O)n2)CC1", "property-measured": "MIC", "val": "> 32 µg/mL"}
{"compound": "CC(N)[C@@H]1CCN(Cc2ccc(-n3ccc(NC(=O)N4CCN(C(=O)C(C)(C)N)CC4)nc3=O)cc2)C1 (some centres unmarked)", "property-measured": "MIC", "val": "< 8 µg/mL"}
{"compound": "C[C@@H]1CCN(CCc2ccc(-n3ccc(NC(=O)N4CCN(C(=O)C(C)(C)N)CC4)nc3=O)cc2)CC[C@H]1N", "property-measured": "MIC", "val": "< 8 µg/mL"}
{"compound": "CC(C)(N)C(=O)N1CCN(C(=O)Nc2ccn(-c3ccc(CN[C@H]4CC[C@@H](N)CC4)cc3)c(=O)n2)CC1", "property-measured": "MIC", "val": "8 to 32 µg/mL"}
{"compound": "C[C@@H]1CCN(CCc2ccc(-n3ccc(NC(=O)N4CCN(C(=O)[C@](C)(N)CO)CC4)nc3=O)cc2)CC[C@H]1N (stereo in doubt)", "property-measured": "MIC", "val": "< 8 µg/mL"}
{"compound": "CC(C)(N)C(=O)N1CCN(C(=O)Nc2ccn(-c3ccc(C(N)C(=O)NC4CNC4)cc3)c(=O)n2)CC1 (centres unmarked)", "property-measured": "MIC", "val": "> 32 µg/mL"}
{"compound": "CCC(N)C1CCCN(Cc2ccc(-n3ccc(NC(=O)N4CCN(C(=O)C(C)(C)N)CC4)nc3=O)cc2)C1 (centres unmarked)", "property-measured": "MIC", "val": "8 to 32 µg/mL"}
{"compound": "CC(C)(N)C(=O)N1CCN(C(=O)Nc2ccn(-c3ccc(CCCN4CC(N)C4)cc3)c(=O)n2)CC1", "property-measured": "MIC", "val": "> 32 µg/mL"}
{"compound": "CC(C)(N)C(=O)N1CCN(C(=O)Nc2ccn(-c3ccc(CN4CCC(N)CC4)cc3)c(=O)n2)C(CO)C1 (centres unmarked)", "property-measured": "MIC", "val": "> 32 µg/mL"}
{"compound": "CC(Cc1ccc(-n2ccc(NC(=O)N3CCN(C(=O)C(C)(C)N)CC3)nc2=O)cc1)NC[C@H]1C[C@H](N)C1 (some centres unmarked)", "property-measured": "MIC", "val": "8 to 32 µg/mL"}
{"compound": "CCN(Cc1ccc(-n2ccc(NC(=O)N3CCN(C(=O)C(C)(C)N)CC3)nc2=O)cc1)[C@@H]1CC[C@H](N)C1", "property-measured": "MIC", "val": "8 to 32 µg/mL"}
{"compound": "CC(Cc1ccc(-n2ccc(NC(=O)N3CCN(C(=O)C(C)(C)N)CC3)nc2=O)cc1)N(C)C1CCC(CN)CC1 (centres unmarked)", "property-measured": "MIC", "val": "> 32 µg/mL"}

Where these numbers come from: patent US12503452B2
